# systemName: UniProt O00329
# Sequence (O00329 whole entry): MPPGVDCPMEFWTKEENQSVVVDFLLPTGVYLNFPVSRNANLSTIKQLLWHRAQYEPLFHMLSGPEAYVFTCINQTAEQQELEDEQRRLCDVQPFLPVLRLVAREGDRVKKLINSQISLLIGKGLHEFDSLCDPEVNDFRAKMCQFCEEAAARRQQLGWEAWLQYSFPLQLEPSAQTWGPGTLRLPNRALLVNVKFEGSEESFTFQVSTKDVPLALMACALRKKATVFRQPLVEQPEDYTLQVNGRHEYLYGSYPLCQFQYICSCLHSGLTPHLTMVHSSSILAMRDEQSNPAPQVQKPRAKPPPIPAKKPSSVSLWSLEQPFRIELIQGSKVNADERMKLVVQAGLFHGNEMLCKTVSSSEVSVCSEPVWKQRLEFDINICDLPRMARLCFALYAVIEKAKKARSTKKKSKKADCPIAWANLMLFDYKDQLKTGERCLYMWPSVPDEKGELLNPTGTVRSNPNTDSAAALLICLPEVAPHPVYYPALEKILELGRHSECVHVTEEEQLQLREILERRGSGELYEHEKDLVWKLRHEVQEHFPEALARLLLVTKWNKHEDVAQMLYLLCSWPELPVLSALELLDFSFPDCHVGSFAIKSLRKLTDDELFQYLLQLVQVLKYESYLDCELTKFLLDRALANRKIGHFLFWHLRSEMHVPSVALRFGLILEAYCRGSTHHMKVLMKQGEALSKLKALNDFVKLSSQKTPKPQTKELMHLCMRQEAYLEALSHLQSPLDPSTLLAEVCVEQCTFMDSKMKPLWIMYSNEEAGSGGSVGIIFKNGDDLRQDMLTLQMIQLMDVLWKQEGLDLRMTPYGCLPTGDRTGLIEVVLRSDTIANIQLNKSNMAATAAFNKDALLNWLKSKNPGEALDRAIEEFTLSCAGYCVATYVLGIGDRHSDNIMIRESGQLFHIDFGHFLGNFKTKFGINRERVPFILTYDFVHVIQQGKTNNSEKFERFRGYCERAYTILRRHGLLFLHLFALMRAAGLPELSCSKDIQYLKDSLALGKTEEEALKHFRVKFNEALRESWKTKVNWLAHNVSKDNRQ
# Sequence (P27986 whole entry partner): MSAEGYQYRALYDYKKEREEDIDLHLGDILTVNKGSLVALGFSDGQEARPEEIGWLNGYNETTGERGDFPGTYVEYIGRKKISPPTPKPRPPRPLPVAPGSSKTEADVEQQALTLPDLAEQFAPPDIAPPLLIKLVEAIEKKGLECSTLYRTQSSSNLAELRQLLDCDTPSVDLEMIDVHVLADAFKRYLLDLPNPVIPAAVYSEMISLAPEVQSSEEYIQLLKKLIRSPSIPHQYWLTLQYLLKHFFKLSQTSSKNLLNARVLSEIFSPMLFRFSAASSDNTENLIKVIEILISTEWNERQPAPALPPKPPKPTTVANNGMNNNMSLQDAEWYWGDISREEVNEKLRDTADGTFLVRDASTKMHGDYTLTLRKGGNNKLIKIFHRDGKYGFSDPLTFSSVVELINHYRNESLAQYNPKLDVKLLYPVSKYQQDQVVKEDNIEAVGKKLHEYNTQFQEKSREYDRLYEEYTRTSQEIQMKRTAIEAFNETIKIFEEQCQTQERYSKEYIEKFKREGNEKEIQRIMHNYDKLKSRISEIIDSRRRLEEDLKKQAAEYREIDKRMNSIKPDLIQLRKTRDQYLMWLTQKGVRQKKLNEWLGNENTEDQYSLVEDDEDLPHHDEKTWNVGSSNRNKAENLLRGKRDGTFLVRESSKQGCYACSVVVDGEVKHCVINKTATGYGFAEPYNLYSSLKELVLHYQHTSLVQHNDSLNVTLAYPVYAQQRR
# protocolSummary: Fluorescent (HTRF) determination of PI3 kinase enzyme activity, PI3Kδ
# Assay type: biochemical
# protocolConditions: 100 nM (Examples 60-137)
inhibition at 0.1 µM by entry:

In the examples that follow, each entry is paired with its recorded inhibition at 0.1 µM.
INSERT INTO results (compound, val) VALUES
  ('CC(C)Oc1ccc(-c2nn(C(C)c3oc4cccc(F)c4c(=O)c3-c3ccccc3)c3ncnc(N)c23)cc1F (racemic) [Example 100]', '25 to 50%'),
  ('Cc1nc(C)c(-c2nn(C(C)c3oc4cccc(F)c4c(=O)c3-c3cccc(F)c3)c3ncnc(N)c23)s1 (centres unmarked) [Example 75]', '25 to 50%'),
  ('CC(c1oc2cccc(F)c2c(=O)c1-c1ccccc1)n1nc(-c2ccc(OC(F)F)c(F)c2)c2c(N)ncnc21 (racemic) [Example 102]', '0 to 25%'),
  ('CC(c1oc2cccc(F)c2c(=O)c1-c1cccc(F)c1)n1cnc2c(N3CCOCC3)ncnc21 (centres unmarked) [Example 119]', '0 to 25%');

As a next step, examine the compound that follows.
Value of measured inhibition at 0.1 µM for the entry CC(C)Oc1ccc(-c2nn(C(C)c3oc4cccc(N5CCOCC5)c4c(=O)c3-c3ccccc3)c3ncnc(N)c23)cc1F (centres unmarked) [Example 121] : 0 to 25%

* * *

# systemName: PI3kγ (Homo sapiens)
# Sequence (P48736 whole entry): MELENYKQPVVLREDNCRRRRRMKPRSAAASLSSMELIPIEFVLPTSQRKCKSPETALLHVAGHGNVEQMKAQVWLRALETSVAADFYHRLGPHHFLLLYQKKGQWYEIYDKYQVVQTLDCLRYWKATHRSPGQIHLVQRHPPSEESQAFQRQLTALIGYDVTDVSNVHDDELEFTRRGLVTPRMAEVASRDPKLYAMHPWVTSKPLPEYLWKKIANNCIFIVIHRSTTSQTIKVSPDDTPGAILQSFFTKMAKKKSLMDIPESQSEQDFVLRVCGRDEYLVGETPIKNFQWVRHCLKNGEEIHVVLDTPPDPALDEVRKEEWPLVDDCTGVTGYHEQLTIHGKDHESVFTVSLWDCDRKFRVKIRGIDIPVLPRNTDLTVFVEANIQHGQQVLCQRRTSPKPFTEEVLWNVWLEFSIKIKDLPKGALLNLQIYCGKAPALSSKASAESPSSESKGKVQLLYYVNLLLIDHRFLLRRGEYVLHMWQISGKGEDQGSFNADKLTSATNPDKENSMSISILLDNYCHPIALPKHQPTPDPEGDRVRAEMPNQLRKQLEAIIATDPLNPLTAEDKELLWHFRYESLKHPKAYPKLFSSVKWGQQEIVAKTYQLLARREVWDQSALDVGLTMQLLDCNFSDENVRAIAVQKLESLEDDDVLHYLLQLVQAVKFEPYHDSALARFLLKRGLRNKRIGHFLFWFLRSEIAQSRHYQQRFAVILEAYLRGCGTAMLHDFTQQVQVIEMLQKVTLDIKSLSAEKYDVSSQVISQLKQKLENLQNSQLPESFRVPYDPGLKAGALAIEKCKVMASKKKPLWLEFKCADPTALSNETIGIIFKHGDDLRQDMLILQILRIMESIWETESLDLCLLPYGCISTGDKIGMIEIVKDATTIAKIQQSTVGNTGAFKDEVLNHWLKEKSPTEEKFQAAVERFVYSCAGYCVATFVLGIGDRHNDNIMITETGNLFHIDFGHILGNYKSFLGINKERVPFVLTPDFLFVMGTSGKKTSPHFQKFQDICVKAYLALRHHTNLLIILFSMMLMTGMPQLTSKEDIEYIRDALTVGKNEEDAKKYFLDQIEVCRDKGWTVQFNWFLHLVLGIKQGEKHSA
# protocolSummary: Fluorescent (HTRF) determination of PI3 kinase enzyme activity, PI3Kγ
# Format: biochemical
# protocolConditions: 300 nM (Examples 1-59)
Let's look at some compounds and their measured inhibition at 0.3 µM.

Solved entries:
INSERT INTO assay_data (compound, systemname, val) VALUES
  ('Cc1cc(-c2nn(C(C)c3oc4cccc(F)c4c(=O)c3-c3cccc(F)c3)c3ncnc(N)c23)ccc1OC(C)C (stereo not shown)', 'PI3kγ (Homo sapiens)', '50 to 75%'),
  ('CC(C)c1n[nH]c2cc(-c3nn(C(C)c4oc5cccc(F)c5c(=O)c4-c4cccc(F)c4)c4ncnc(N)c34)ccc12 (stereo not shown)', 'PI3kγ (Homo sapiens)', '0 to 25%'),
  ('CC(c1oc2cccc(F)c2c(=O)c1-c1cccc(F)c1)n1nc(-c2cn[nH]c2)c2c(N)ncnc21 (stereo not shown)', 'PI3kγ (Homo sapiens)', '75 to 100%');

The value of inhibition at 0.3 µM measured for the compound CC(c1oc2cccc(F)c2c(=O)c1-c1cccc(F)c1)n1nc(-c2ccc(OC3COC3)c(F)c2)c2c(N)ncnc21 (stereo not shown) turned out to be 50 to 75%

Sample CC(c1oc2cccc(F)c2c(=O)c1-c1ccccc1)n1nc(-c2ccc(OC(F)F)c(F)c2)c2c(N)ncnc21 (stereo not shown) ; inhibition at 0.3 µM observed: 50 to 75%

GET /value?item= CC(C)Oc1ccc(-c2nn(C(C)c3oc4cccc(F)c4c(=O)c3-c3ccc(F)cc3)c3ncnc(N)c23)cc1F (stereo not shown) &field=inhibition at 0.3 µM returns 75 to 100%

Please fill in: inhibition at 0.3 µM reported for CC(C)Oc1ccc(-c2nn(C(C)c3oc4cccc(F)c4c(=O)c3-c3cccc(F)c3)c3ncnc(N)c23)cn1 (stereo not shown) = 0 to 25%

The measured inhibition at 0.3 µM associated with CC(C)C(=O)Nc1ccc(-c2nn(C(C)c3oc4cccc(F)c4c(=O)c3-c3cccc(F)c3)c3ncnc(N)c23)cc1 (stereo not shown) reads 75 to 100%

// inhibition at 0.3 µM value for CSc1nn(C(C)c2oc3cccc(F)c3c(=O)c2-c2cccc(F)c2)c2ncnc(N)c12 (stereo not shown) : 50 to 75%

Measured inhibition at 0.3 µM of CC(c1oc2cccc(F)c2c(=O)c1-c1ccc(F)cc1)n1nc(-c2ccc(OC(F)F)c(F)c2)c2c(N)ncnc21 (stereo not shown) : 50 to 75%

Quick note, inhibition at 0.3 µM for `CC(C)Oc1ccc(-c2nn(Cc3oc4cccc(F)c4c(=O)c3-c3cccc(F)c3)c3ncnc(N)c23)cc1F` landed at 50 to 75%

Noted for CC(c1oc2cccc(F)c2c(=O)c1-c1cccc(F)c1)n1nc(-c2ccc(N3CCOCC3)c(F)c2)c2c(N)ncnc21 (stereo not shown) : its inhibition at 0.3 µM reads 75 to 100%

Lab note: measured inhibition at 0.3 µM of Cc1n[nH]c2cc(-c3nn(C(C)c4oc5cccc(F)c5c(=O)c4-c4cccc(F)c4)c4ncnc(N)c34)ccc12 (stereo not shown) was 75 to 100%

* * *

testReadout: melting point

Some compounds with recorded melting point:
INSERT INTO measurements (compound, val) VALUES
  ('CC(c1oc2cccc(F)c2c(=O)c1-c1cccc(F)c1)n1nc(-c2ccc3c(c2)C(=O)NC3)c2c(N)ncnc21 (stereo not shown)', '242 to 245 °C'),
  ('CC(c1oc2cccc(F)c2c(=O)c1-c1cccc(F)c1)n1nc(-c2ccc(N3CCOCC3)c(F)c2)c2c(N)ncnc21 (racemic) [Example 70]', '243 to 246 °C');

Sure, the documented melting point for CCOc1ccc(-c2nn(C(C)c3oc4cccc(F)c4c(=O)c3-c3cccc(F)c3)c3ncnc(N)c23)cc1C(F)(F)F (stereo not shown) is 225 to 227 °C

melting point in this record for C[C@H](Nc1nc(F)nc2[nH]cnc12)c1oc2cccc(F)c2c(=O)c1-c1cccc(F)c1 (racemic) : 183 to 186 °C

Ref: patent US11020399B2
